Test: Antiprion activity in human transmissible spongiform encephalopathies agent Fukuoka-1 prion infected mouse GT1-7 cells assessed as inhibition of proteinase K-resistant PrPres accumulation after 3 days by Western blot analysis
Assay type: cell-based
Details: GT1-7, 72 h
Below: a set of entries, each annotated with reported pIC50.
// pIC50 is dimensionless: -log10 of concentration (M)

A selection of reference data follows.
{"columns": ["Molecule", "Measured number"],
 "data": [
  ["O[C@@H](CNCc1ccccc1F)Cn1c2c(c3ccccc31)CCCC2", 5.95],
  ["Cc1ccc2c(c1)c1c(n2CC(O)CN2CCCCC2)C(=O)CCC1 (centres undefined)", 5.07],
  ["O=C(CN1CCCC1)Nc1ccc(Cc2ccc(NC(=O)CN3CCCC3)cc2)cc1", 5.85]
]}

# input for lookup
*Q* Could you please provide reported pIC50 for O[C@H](CNCc1ccccc1F)Cn1c2c(c3ccccc31)CCCC2 ? Thanks!
*A* 5.65

====

Test system: GT1-7
Experiment: Antiprion activity in human transmissible spongiform encephalopathies agent Fukuoka-1 prion infected mouse GT1-7 cells assessed as inhibition of proteinase K-resistant PrPres accumulation at […] after 3 days by Western blotting analysis
Type: cell-based
Calls of active or inactive are those of the source. The rule behind the calls is not given here.
Hi! Could you answer with just one of these? active, inactive

Solved cases below.
{"columns": ["Compound", "Experimental system", "Class name"],
 "data": [
  ["Cc1ccccc1CNCC(O)Cn1c2c(c3ccccc31)CCCC2 (stereo not given)", "GT1-7", "active"],
  ["OC(CNCc1ccccc1C(F)(F)F)Cn1c2c(c3ccccc31)CCCC2 (stereo not given)", "GT1-7", "active"],
  ["OC(CNCc1cccc(Cl)c1)Cn1c2c(c3ccccc31)CCCC2 (stereo not given)", "GT1-7", "active"],
  ["COc1ccccc1CNCC(O)Cn1c2c(c3ccccc31)CCCC2 (stereo not given)", "GT1-7", "active"],
  ["OC(CNCc1cccnc1)Cn1c2c(c3ccccc31)CCCC2 (stereo not given)", "GT1-7", "active"]
]}

Attention now shifts to the item below.
*Q* What did the test return for OC(CN1CCCCC1)Cn1cccc1 (stereo not given) ?
*A* inactive

====

Tested on: GT1-7
Assay: Antiprion activity in human transmissible spongiform encephalopathies agent Fukuoka-1 prion infected mouse GT1-7 cells assessed as inhibition of proteinase K-resistant PrPres accumulation at […] after 3 days by Western blotting analysis
Assay type: cell-based
Active and inactive are the calls of the source. The rule behind the calls is not given here.
Hi! Could you answer with just one of these? label 1 for active, label 0 for inactive

*Q* What did the test return for OC(CNC1CCCC1)Cn1c2c(c3ccccc31)CCCC2 (stereo unspecified) ?
*A* label 1

*Q* What did the test return for CCCCNCC(O)Cn1c2c(c3ccccc31)CCCC2 (stereo unspecified) ?
*A* label 1

*Q* What did the test return for OC(CNc1ccccc1)Cn1c2c(c3ccccc31)CCCC2 (stereo unspecified) ?
*A* label 0

====

System: GT1-7
Test: Antiprion activity in human transmissible spongiform encephalopathies agent Fukuoka-1 prion infected mouse GT1-7 cells assessed as inhibition of proteinase K-resistant PrPres accumulation at […] after 3 days by Western blotting analysis
Format: cell-based
Active and inactive are the calls of the source. The rule behind the calls is not given here.
Assay metric: inhibition

{"columns": ["Compound", "Result"],
 "data": [
  ["OC(CNCc1ccc(C(F)(F)F)cc1)Cn1c2c(c3ccccc31)CCCC2 (centres undefined)", "Active"],
  ["Cc1cccc(CNCC(O)Cn2c3c(c4ccccc42)CCCC3)c1 (centres undefined)", "Active"],
  ["OC(CN1CCCCC1)Cn1ccc2ccccc21 (centres undefined)", "inactive"],
  ["OC(CNCc1ccc(F)cc1F)Cn1c2c(c3ccccc31)CCCC2 (centres undefined)", "Active"],
  ["c1ccc2c3c([nH]c2c1)CCCC3", "inactive"],
  ["OC(CNCc1ccc(F)cc1)Cn1c2c(c3ccccc31)CCCC2 (centres undefined)", "Active"],
  ["OC(CN1CCCCC1)Cn1c2ccccc2c2ccccc21 (centres undefined)", "Active"],
  ["OC(CNCc1cc(F)ccc1F)Cn1c2c(c3ccccc31)CCCC2 (centres undefined)", "Active"],
  ["OC(CNCc1ccccc1Br)Cn1c2c(c3ccccc31)CCCC2 (centres undefined)", "Active"],
  ["OC(CNCc1ccncc1)Cn1c2c(c3ccccc31)CCCC2 (centres undefined)", "Active"]
]}

*Q* Quote inhibition with test system GT1-7 for OC(CNCc1c(F)cccc1F)Cn1c2c(c3ccccc31)CCCC2 (centres undefined)
*A* Active

*Q* Quote inhibition with test system GT1-7 for OC(CNCc1ccccc1Cl)Cn1c2c(c3ccccc31)CCCC2 (centres undefined)
*A* Active

*Q* Quote inhibition with test system GT1-7 for OC(CNCc1cccc(F)c1)Cn1c2c(c3ccccc31)CCCC2 (centres undefined)
*A* Active

*Q* Quote inhibition with test system GT1-7 for OC(CN1CCCCC1)Cn1ccc2c1CCCC2 (centres undefined)
*A* inactive

*Q* Quote inhibition with test system GT1-7 for OC(CNCc1ccccc1)Cn1c2c(c3ccccc31)CCCC2 (centres undefined)
*A* Active

*Q* Quote inhibition with test system GT1-7 for OC(CN1CCCCC1)Cn1c2c(c3ccccc31)CCCC2 (centres undefined)
*A* Active

*Q* Quote inhibition with test system GT1-7 for OC(CN1CCOCC1)Cn1c2c(c3ccccc31)CCCC2 (centres undefined)
*A* Active

*Q* Quote inhibition with test system GT1-7 for OC(CNCc1ccccc1F)Cn1c2c(c3ccccc31)CCCC2 (centres undefined)
*A* Active

*Q* Quote inhibition with test system GT1-7 for OC(CNCc1cccc(Br)c1)Cn1c2c(c3ccccc31)CCCC2 (centres undefined)
*A* Active
